- Assayed target: T1, human IL-13Rα1 on normal human dermal fibroblast (NHDF) cells (human, UniProt P78552 27-427)
- T1 sequence: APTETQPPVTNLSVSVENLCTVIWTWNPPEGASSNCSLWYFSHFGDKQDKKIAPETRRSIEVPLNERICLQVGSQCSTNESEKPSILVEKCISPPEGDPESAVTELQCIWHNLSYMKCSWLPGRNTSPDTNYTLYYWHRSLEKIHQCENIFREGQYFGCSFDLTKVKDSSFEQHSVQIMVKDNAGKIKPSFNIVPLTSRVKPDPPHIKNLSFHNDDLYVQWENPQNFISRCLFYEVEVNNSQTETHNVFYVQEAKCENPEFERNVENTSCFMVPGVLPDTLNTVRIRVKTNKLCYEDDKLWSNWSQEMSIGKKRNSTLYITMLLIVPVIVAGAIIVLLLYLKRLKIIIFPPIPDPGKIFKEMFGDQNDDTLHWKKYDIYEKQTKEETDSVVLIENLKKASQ
- Protocol text: cell-based or functional assay
Result type: inhibition of eotaxin release from NHDF cells upon stimulation with IL-13 (IC50) (µg/mL)

{"Binder": "8B4-21C (eotaxin assay) (antibody, V domains shown) VH: EVQVLESGGGLVQPGGSLRLSCAASGFTFSNYAMTWVRQAPGKGLEWVSTISGRGYSIYYADSVKGRFTISRDNSKNTVYLQMNSLRAEDTAVYYCAKEEGHWYFDVWGRGTLVTVSS VL: EIVLTQSPDFQSVTPKEKVTITCRASQSIGSSLHWYQQKPDQSPKLLIKYASQSFSGVPSRFSGSGSGTDFTLTINSLEAEDAAAYYCKSSAGLPYTFGQGTKLEIK", "Recorded measurement": 0.75}
{"Binder": "8B4-74C (eotaxin assay) (antibody, V domains shown) VH: EVQVLESGGGLVQPGGSLRLSCAASGFTFSNYAMTWVRQAPGKGLEWVSTISGRGYSIYYADSVKGRFTISRDNSKNTVYLQMNSLRAEDTAVYYCAKEEGHWYFDVWGRGTLVTVSS VL: EIVLTQSPDFQSVTPKEKVTITCRASQSIGSSLHWYQQKPDQSPKLLIKYASQSFSGVPSRFSGSGSGTDFTLTINSLEAEDAAAYYCMSSLGLPYTFGQGTKLEIK", "Recorded measurement": 0.1}
{"Binder": "8B4-82 (eotaxin assay) (antibody, V domains shown) VH: EVQVLESGGGLVQPGGSLRLSCAASGFTFSNYAMTWVRQAPGKGLEWVSTISGRGYSIYYADSVKGRFTISRDNSKNTVYLQMNSLRAEDTAVYYCAKEEGHWYFDVWGRGTLVTVSS VL: EIVLTQSPDFQSVTPKEKVTITCRASQSIGSSLHWYQQKPDQSPKLLIKYASQSFSGVPSRFSGSGSGTDFTLTINSLEAEDAAAYYCASSRGLPYTFGQGTKLEIK", "Recorded measurement": 1.31}
{"Binder": "8B4-36 (eotaxin assay) (antibody, V domains shown) VH: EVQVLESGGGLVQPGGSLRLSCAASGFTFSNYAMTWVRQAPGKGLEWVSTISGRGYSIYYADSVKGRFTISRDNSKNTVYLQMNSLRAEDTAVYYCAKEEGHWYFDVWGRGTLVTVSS VL: EIVLTQSPDFQSVTPKEKVTITCRASQSIGSSLHWYQQKPDQSPKLLIKYASQSFSGVPSRFSGSGSGTDFTLTINSLEAEDAAAYYCVSSWGLPYTFGQGTKLEIK", "Recorded measurement": 0.17}

Value source: patent US20090285799A1
